# assayInfo: Test 9: intracerebral transferability in rats
# Type: in vivo
# assayContext: brain and plasma (unbound); SD or WKY rat, subcutaneous or oral, 0.5, 1 or 2 hours; unbound brain/plasma ratio

{"columns": ["compound", "Kp uu at 2 h"],
 "data": [
  ["CCN(CCN1CCC(c2noc3cc(F)ccc23)CC1)C(=O)C(O)COC (stereo not shown)", 0.56]
]}

====

The reader will find reported pKi values listed item by item below.
# targetOrSystem: human D2 receptor (Homo sapiens (Human), UniProt P14416)
# Sequence (P14416 whole entry): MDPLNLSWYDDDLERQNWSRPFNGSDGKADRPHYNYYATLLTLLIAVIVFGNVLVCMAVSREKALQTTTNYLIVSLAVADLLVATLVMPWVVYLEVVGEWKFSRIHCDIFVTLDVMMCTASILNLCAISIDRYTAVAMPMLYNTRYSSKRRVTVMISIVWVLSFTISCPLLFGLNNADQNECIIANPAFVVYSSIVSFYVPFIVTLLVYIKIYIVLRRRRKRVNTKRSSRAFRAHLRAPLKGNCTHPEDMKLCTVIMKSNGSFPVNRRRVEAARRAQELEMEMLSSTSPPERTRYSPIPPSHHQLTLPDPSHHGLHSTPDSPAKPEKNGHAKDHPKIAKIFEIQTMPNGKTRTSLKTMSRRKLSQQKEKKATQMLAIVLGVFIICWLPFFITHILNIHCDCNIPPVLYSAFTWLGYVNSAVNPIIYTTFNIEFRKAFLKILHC
# assayInfo: Test 1: binding activity for human D2 receptor ([3H]Spiperone, CHO cell membrane fraction)
# assayContext: [3H]Spiperone, room temperature 60 minutes
pKi: −log10 of the molar value.

{"columns": ["compound", "boundSign", "pKi"],
 "data": [
  ["CCN(CCN1CCC(c2c[nH]c3ccccc23)CC1)C(=O)[C@@H](C)O [Example 49]", "<", 6.00],
  ["CCN(CCN1CCC(c2c[nH]c3cc(F)ccc23)CC1)C(=O)[C@H](C)O [Example 20]", "=", 7.34],
  ["CCN(CCN1CCC(c2c[nH]c3cc(F)ccc23)CC1)C(=O)CCO [Example 48]", "=", 7.10],
  ["CCN(CCN1CCC(c2noc3cc(F)ccc23)CC1)C(=O)C1(O)CCCN(C(C)=O)C1 (centres unmarked) [Example 72]", ">", 7.00],
  ["CCN(CCCN1CCC(c2noc3cc(F)ccc23)CC1)S(=O)(=O)CCO [Example 53]", ">", 7.00]
]}

====

The reader will find reported log10 IC50 values listed item by item below.
# targetOrSystem: human 5-HT7 receptor (Homo sapiens (Human))
# Sequence (P34969 whole entry): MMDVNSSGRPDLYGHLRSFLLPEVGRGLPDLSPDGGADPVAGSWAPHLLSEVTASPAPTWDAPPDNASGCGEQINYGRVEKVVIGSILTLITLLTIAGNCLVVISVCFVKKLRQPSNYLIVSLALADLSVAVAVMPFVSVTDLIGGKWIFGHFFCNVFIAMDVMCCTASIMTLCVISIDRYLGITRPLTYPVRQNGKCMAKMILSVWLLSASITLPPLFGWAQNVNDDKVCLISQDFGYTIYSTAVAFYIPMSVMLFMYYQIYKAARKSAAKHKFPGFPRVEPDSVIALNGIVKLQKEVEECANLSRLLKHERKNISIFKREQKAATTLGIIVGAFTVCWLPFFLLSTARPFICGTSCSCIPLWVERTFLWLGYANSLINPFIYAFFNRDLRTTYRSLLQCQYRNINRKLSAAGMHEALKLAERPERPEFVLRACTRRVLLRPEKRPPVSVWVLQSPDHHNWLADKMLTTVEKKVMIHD
# assayInfo: Test 2: antagonist activity for human 5-HT7 receptor (aequorin luminescence, CHO-K1 cells)
# assayContext: Gα16
propertyLabel: log10 IC50 (log10 of the value in nM)

{"columns": ["compound", "log10 IC50"],
 "data": [
  ["CCN(CCN1CCC(c2noc3cc(F)ccc23)CC1)C(=O)[C@H]1NCC[C@H]1O", 1.96],
  ["C#CC(O)C(=O)N(CC)CCN1CCC(c2noc3cc(F)ccc23)CC1 (stereo not drawn)", 1.90],
  ["CCN(CCN1CCC(c2noc3ccccc23)CC1)S(=O)(=O)CCO", 1.18],
  ["CCN(CCN1CCC(c2noc3cc(F)ccc23)CC1)C(=O)C(O)C(F)(F)F (stereo not drawn)", 1.89],
  ["CCN(CCN1CCN(c2noc3ccccc23)CC1)C(=O)C(C)O (stereo not drawn)", 1.85],
  ["CCN(CCN1CCC(c2noc3cc(F)ccc23)CC1)S(=O)(=O)C(C)CO (stereo not drawn)", 2.25],
  ["CCN(CCN1CCC(c2n[nH]c3cc(F)ccc23)CC1)C(=O)C(C)O (stereo not drawn)", 1.79],
  ["CCN(CCCN1CCC(c2noc3cc(F)ccc23)CC1)C(=O)[C@H](C)O", 1.77],
  ["CCN(CCN1CCC(c2c[nH]c3ccccc23)CC1)C(=O)C(C)O (stereo not drawn)", 1.60],
  ["CCN(CCN1CCC(c2noc3cc(F)ccc23)CC1)C(=O)C(C)(C)O", 1.82],
  ["CCN(CCN1CCC(c2noc3cc(F)ccc23)CC1)C(=O)C1(O)CCOCC1", 1.83],
  ["CCN(CCN1CCC(c2c[nH]c3ccccc23)CC1)S(=O)(=O)CCO", 2.00],
  ["CCN(CCN1CCN(c2noc3cc(F)ccc23)CC1)C(=O)C(C)O (stereo not drawn)", 1.86],
  ["CCN(CCN1CCC(c2noc3cc(F)ccc23)CC1)C(=O)[C@H]1CC[C@H](O)CC1", 1.91],
  ["CCN(CCN1CCC(c2c[nH]c3ccccc23)CC1)C(=O)CCO", 1.63],
  ["CC(O)C(=O)N(CC#N)CCN1CCC(c2noc3cc(F)ccc23)CC1 (stereo not drawn)", 1.86],
  ["CCN(CCN1CCC(c2c[nH]c3cc(F)ccc23)CC1)S(=O)(=O)CCO", 1.45],
  ["CCN(CCN1CCC(c2noc3cc(F)ccc23)CC1)C(=O)C1(O)CCCNC1 (stereo not drawn)", 1.93]
]}

====

# assayInfo: Test 3-1: metabolic stability test in human hepatic microsome
# Assay type: in vitro ADME
# assayContext: microsome 0.1 mg/mL, test compound 0.1 μmol/L, 37° C., 30 minutes
propertyLabel: Metabolic stability in human hepatic microsome

{"columns": ["compound", "dataValue"],
 "data": [
  ["CCN(CCCN1CCC(c2noc3cc(F)ccc23)CC1)C(=O)[C@H](C)O", "<0.05 mL/min/mg protein"],
  ["CCN(CCN1CCC(c2noc3cc(F)ccc23)CC1)C(=O)C1(O)CCCN(C(C)=O)C1 (stereo not drawn)", "0.057 mL/min/mg protein"],
  ["CCN(CCN1CCC(c2noc3cc(F)ccc23)CC1)C(=O)C1(O)CCOCC1", "<0.05 mL/min/mg protein"],
  ["CCN(CCN1CCC(c2c[nH]c3cc(F)ccc23)CC1)C(=O)CCO", "<0.05 mL/min/mg protein"],
  ["CCN(CCN1CCC(c2c[nH]c3ccccc23)CC1)C(=O)C(C)O (stereo not drawn)", "<0.05 mL/min/mg protein"],
  ["CCN(CCCN1CCC(c2noc3cc(F)ccc23)CC1)S(=O)(=O)CCO", "<0.05 mL/min/mg protein"],
  ["CCN(CCN1CCC(n2ncc3cc(F)ccc32)CC1)S(=O)(=O)C(C)CO (stereo not drawn)", "0.097 mL/min/mg protein"],
  ["CCN(CCN1CCC(c2noc3cc(F)ccc23)CC1)C(=O)C(C)CO (stereo not drawn)", "<0.05 mL/min/mg protein"],
  ["CCN(CCN1CCC(c2noc3ccc(C)cc23)CC1)S(=O)(=O)CCO", "0.079 mL/min/mg protein"]
]}

====

# targetOrSystem: human 5-HT2A receptor (Homo sapiens (Human))
pKi: −log10 of the molar value.
propertyLabel: pKi

{"columns": ["molecule", "targetOrSystem", "dataValue"],
 "data": [
  ["CCN(CCN1CCC(c2noc3cc(F)ccc23)CC1)S(=O)(=O)C(C)CO (centres unmarked) [Example 52]", "human 5-HT2A receptor (Homo sapiens (Human))", 6.53],
  ["CCN(CCN1CCC(c2noc3cc(F)ccc23)CC1)C(=O)C(O)COC (centres unmarked) [Example 18]", "human 5-HT2A receptor (Homo sapiens (Human))", 8.60]
]}

====

The reader will find reported Metabolic stability in human hepatic microsome values listed item by item below.
# assayInfo: Test 3-1: metabolic stability test in human hepatic microsome
# Type: in vitro ADME
# assayContext: microsome 0.1 mg/mL, test compound 0.1 μmol/L, 37° C., 30 minutes
propertyLabel: Metabolic stability in human hepatic microsome

{"columns": ["molecule", "dataValue"],
 "data": [
  ["CCN(CCN1CCC(c2noc3cc(F)ccc23)CC1)C(=O)C(O)CCC(=O)OC (stereo not drawn) [Example 5]", "0.186 mL/min/mg protein"],
  ["CCN(CCN1CCC(c2noc3cc(F)ccc23)CC1)C(=O)[C@H]1NCC[C@H]1O [Example 68]", "<0.05 mL/min/mg protein"],
  ["[2H]C(C)(O)C(=O)N(CC)CCN1CCC(c2noc3cc(F)ccc23)CC1 (stereo not drawn) [Example 40]", "<0.05 mL/min/mg protein"],
  ["CCN(CCN1CCC(c2noc3cc(F)ccc23)CC1)C(=O)C(O)CN (stereo not drawn) [Example 65]", "<0.05 mL/min/mg protein"],
  ["CCN(CCN1CCC(c2noc3cc(F)ccc23)CC1)C(=O)C1CN(C)CC1O (stereo not drawn) [Example 75]", "<0.05 mL/min/mg protein"],
  ["CC(C)N(CCN1CCC(c2noc3cc(F)ccc23)CC1)C(=O)[C@@H](C)O [Example 42]", "<0.05 mL/min/mg protein"]
]}

====

The reader will find reported pIC50 values listed item by item below.
# targetOrSystem: human 5-HT2A receptor (Homo sapiens (Human), UniProt P28223)
# Sequence (P28223 whole entry): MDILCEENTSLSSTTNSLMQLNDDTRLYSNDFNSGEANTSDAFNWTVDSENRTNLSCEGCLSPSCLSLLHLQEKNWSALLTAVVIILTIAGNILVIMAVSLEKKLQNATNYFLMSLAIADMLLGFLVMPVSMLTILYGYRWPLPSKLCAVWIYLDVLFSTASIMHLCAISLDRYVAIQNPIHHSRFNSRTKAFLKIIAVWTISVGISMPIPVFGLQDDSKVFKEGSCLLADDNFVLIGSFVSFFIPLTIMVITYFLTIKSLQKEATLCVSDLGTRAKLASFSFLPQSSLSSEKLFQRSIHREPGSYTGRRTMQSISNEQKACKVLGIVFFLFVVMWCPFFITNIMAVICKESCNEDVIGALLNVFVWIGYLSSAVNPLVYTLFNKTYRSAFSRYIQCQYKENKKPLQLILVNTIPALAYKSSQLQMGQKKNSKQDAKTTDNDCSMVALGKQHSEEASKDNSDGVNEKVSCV
# assayInfo: Test 2: antagonist activity for human 5-HT2A receptor (aequorin luminescence, CHO-K1 cells)
# assayContext: Gα16
pIC50: −log10 of the molar value.
propertyLabel: pIC50

{"columns": ["molecule", "targetOrSystem", "propertyLabel", "dataValue"],
 "data": [
  ["CCN(CCN1CCC(c2noc3cc(F)ccc23)CC1)C(=O)C(O)COC (centres unmarked) [Example 18]", "human 5-HT2A receptor (Homo sapiens (Human), UniProt P28223)", "pIC50", 7.24],
  ["CCN(CCN1CCC(c2c[nH]c3ccccc23)CC1)S(=O)(=O)CCO [Example 57]", "human 5-HT2A receptor (Homo sapiens (Human), UniProt P28223)", "pIC50", 7.25],
  ["CCN(CCN1CCC(n2ccc3cc(F)ccc32)CC1)C(=O)C(C)O (centres unmarked) [Example 50]", "human 5-HT2A receptor (Homo sapiens (Human), UniProt P28223)", "pIC50", 7.31],
  ["CCN(CCN1CCC(c2noc3cc(F)ccc23)CC1)C(=O)C1(O)CC1 [Example 24]", "human 5-HT2A receptor (Homo sapiens (Human), UniProt P28223)", "pIC50", 8.15],
  ["CCN(CCN1CCC(c2noc3cc(F)ccc23)CC1)S(=O)(=O)C(C)CO (centres unmarked) [Example 52]", "human 5-HT2A receptor (Homo sapiens (Human), UniProt P28223)", "pIC50", 6.02]
]}
